B1: LINE1-full (parent)
chain: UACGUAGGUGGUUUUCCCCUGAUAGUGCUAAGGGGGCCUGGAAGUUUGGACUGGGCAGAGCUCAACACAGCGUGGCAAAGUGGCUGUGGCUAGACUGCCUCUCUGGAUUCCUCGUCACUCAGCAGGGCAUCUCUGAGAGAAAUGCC

- Variants of: B1
- assaySummary: self-cleavage, relative activity (ratio to wild type); higher = more cleavage; in vitro, sequencing; the parent is a self-cleaving ribozyme
Parameter self-cleavage: see the listing below.

Illustrative cases are given below, each with its answer.
U23C U39C ... 0.87
U119C A140G ... 1.88
U100A C103U ... 0.44
C68G A121C ... 0.03
G4A U26C ... 0.61
G44U U115A ... 1.17
U14A U109C ... 1.05
U47C U119A ... 1.86
G34A A78G ... 1.27
C28U U130C ... 0.7

### Prompt self-cleavage for U52C U62A ?
### Response 0.08

### Prompt Fill in: self-cleavage of G53A U102A is ___
### Response 1.3

### Prompt Entry A42G U100A has what self-cleavage?
### Response 1.28

### Prompt Param item = U9G A141U ; retrieve measured self-cleavage.
### Response 0.52

### Prompt Look up self-cleavage: G32U G55A
### Response 0.18

### Prompt What value of self-cleavage has been reported for the following variant? U13C G54U
### Response 0.6
